Value source: patent US20230365592A1

# key: entry, value: AC50
- subject-of-test: human PAH with the R408W mutation (Homo sapiens, UniProt P00439, R408W)
- Construct: expressed in transfected cells
- Sequence (P00439 whole entry R408W): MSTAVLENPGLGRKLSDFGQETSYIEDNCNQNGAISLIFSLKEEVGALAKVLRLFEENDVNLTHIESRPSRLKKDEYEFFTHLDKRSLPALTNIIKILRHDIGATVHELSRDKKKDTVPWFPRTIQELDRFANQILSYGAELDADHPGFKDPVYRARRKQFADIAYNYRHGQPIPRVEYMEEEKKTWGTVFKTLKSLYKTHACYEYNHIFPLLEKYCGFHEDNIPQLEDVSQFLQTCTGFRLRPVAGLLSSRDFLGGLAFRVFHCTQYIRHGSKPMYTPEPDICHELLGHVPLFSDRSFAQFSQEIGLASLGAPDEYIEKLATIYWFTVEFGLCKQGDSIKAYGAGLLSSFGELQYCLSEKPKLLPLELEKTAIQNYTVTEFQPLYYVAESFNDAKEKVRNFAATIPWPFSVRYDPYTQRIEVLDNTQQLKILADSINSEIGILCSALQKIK
- protocol-details: Cell Based Phenylalanine Flux Assay;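 also: after compound treatment, cells received sepiapterin plus isotope-labelled Phenylalanine for 4 hours, then labelled Tyrosine in the medium was quantified, 10-point 2-fold dilution series run in duplicate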
- condition-set: A375 cells expressing human R408W PAH; 24 hrs compound incubation; 13C-Tyrosine by LC-MS; average where tested multiple times; read-out: AC50
test-readout: AC50

{"columns": ["compound", "test-readout", "readout-value"],
 "data": [
  ["CC(C)(C)c1nnc(C(=O)N2CCc3[nH]cnc3[C@@H]2c2cc3cccc(F)n3n2)o1", "AC50", "1000 to 5000 nM"],
  ["COc1cccn2nc([C@H]3c4nc[nH]c4CCN3C(=O)c3nnc(C4CC4)o3)cc12", "AC50", "> 5000 nM"],
  ["c1ccc(-c2nnc(N3CCc4[nH]cnc4[C@H]3c3cc4ccccn4n3)o2)nc1", "AC50", "500 to 1000 nM"],
  ["CCOc1cccc2cc([C@H]3c4nc[nH]c4CCN3C(=O)c3nnc(C(C)(C)F)o3)nn12", "AC50", "1000 to 5000 nM"],
  ["O=C(c1ocnc1C(F)F)N1CCc2[nH]cnc2[C@@H]1c1cc2c(C(F)(F)F)cccn2n1", "AC50", "500 to 1000 nM"],
  ["O=C(c1nnc(-c2ccn(C(F)(F)F)n2)o1)N1CCc2[nH]cnc2[C@@H]1c1cc2cccc(F)n2n1", "AC50", "1000 to 5000 nM"],
  ["CC(C)(F)c1nnc(C(=O)N2CCc3[nH]cnc3[C@H]2c2cc3ccc(F)cn3n2)o1", "AC50", "500 to 1000 nM"],
  ["Cc1cccn2nc([C@@H]3c4nc[nH]c4CCN3C(=O)c3nnc(C4CC4)o3)cc12", "AC50", "< 500 nM"],
  ["Cc1cccn2nc([C@@H]3c4nc[nH]c4CCN3C(=O)c3nnc(-c4ccncc4)o3)cc12", "AC50", "< 500 nM"],
  ["FC(F)c1nnc(N2CCc3[nH]cnc3[C@H]2c2cc3c(C(F)(F)F)cccn3n2)o1", "AC50", "< 500 nM"],
  ["Cc1ccc(-c2nnc(C(=O)N3CCc4[nH]cnc4[C@@H]3c3cc4c(F)cccn4n3)o2)nc1", "AC50", "> 5000 nM"],
  ["Cn1cc(-c2nc(C(F)F)c(C(=O)N3CCc4[nH]cnc4[C@H]3c3cc4c(F)cccn4n3)o2)cn1", "AC50", "< 500 nM"],
  ["Cc1cccn2nc([C@H]3c4nc[nH]c4CCN3C(=O)c3nnc(C4(C)CC4)o3)cc12", "AC50", "1000 to 5000 nM"],
  ["FC(F)(F)c1cnc(N2CCc3[nH]cnc3[C@H]2c2cc3ccccn3n2)nc1", "AC50", "< 500 nM"],
  ["O=C(c1cnco1)N1CCc2[nH]cnc2[C@H]1c1cc2c(C(F)(F)F)cccn2n1", "AC50", "500 to 1000 nM"],
  ["O=C(c1cncs1)N1CCc2[nH]cnc2[C@@H]1c1cc2ccccn2n1", "AC50", "1000 to 5000 nM"]
]}
